Below, each of the compounds is paired with its reported MRT last value.
Experiment: MRT (0 to t) in C57BL/6 mouse at 1 mg/kg, iv measured for 0.5 to 12 htr by LC-MS/MS analysis
Assay type: ADME, organism-based
Settings: in vivo, time 0.5-12 hrs
Field: numeric (min). Do not append units.

Solved entries:
CC[C@@H]1C(=O)N(C)c2cnc(Nc3cc(N4CCN(C)CC4)ccc3OCCCO)nc2N1C1CCCC1 : 34.8
CC[C@@H]1C(=O)N(C)c2cnc(Nc3ccc(C(=O)NC4CCN(C)CC4)cc3OC)nc2N1C1CCCC1 : 42

Consider now this further compound.
Returns the measured MRT last for the input compound. Input: `CC[C@@H]1C(=O)N(C)c2cnc(Nc3cc(N4CCN(C)CC4)cc(Cl)c3OCCCO)nc2N1C1CCCC1`
39.6

====

Experiment: Metabolic stability in human liver microsomes assessed as intrinsic clearance in microsome measured per mg protein preincubated for 5 mins followed by NADPH addition by LC-MS/MS analysis
Format: ADME
Details: read-out: CLH
endpoint.label: microsomal CLint (µL/min/mg)
Field: numeric (µL/min/mg). Do not append units.

CC[C@@H]1C(=O)N(C)c2cnc(Nc3ccc(C(=O)NC4CCN(C)CC4)cc3OC)nc2N1C1CCCC1 : 24.1

Returns the measured microsomal CLint for the input compound. Input: `CC[C@@H]1C(=O)N(C)c2cnc(Nc3cc(N4CCN(C)CC4)cc(Cl)c3OCCCO)nc2N1C1CCCC1`
68.3

====

Experiment: Metabolic stability in human liver microsomes assessed as intrinsic clearance preincubated for 5 mins followed by NADPH addition by LC-MS/MS analysis
Format: ADME, Microsome
Settings: read-out: CLH
endpoint.label: CLint scaled (mL/min/kg)
Field: numeric (mL/min/kg). Do not append units.

CC[C@@H]1C(=O)N(C)c2cnc(Nc3ccc(C(=O)NC4CCN(C)CC4)cc3OC)nc2N1C1CCCC1 : 30.3

Returns the measured CLint scaled for the input molecule. Input: `CC[C@@H]1C(=O)N(C)c2cnc(Nc3cc(N4CCN(C)CC4)cc(Cl)c3OCCCO)nc2N1C1CCCC1`
85.6

====

Below, each of the compounds is paired with its reported pIC50 value.
Test system: CCRF-CEM
Assay: cells
Conditions: Homo sapiens
Would you please state pIC50, meaning minus log10 of the concentration in mol/L, as a bare number?

Solved entries:
CC[C@@H]1C(=O)N(C)c2cnc(Nc3cc(N4CCN(C)CC4)cc(F)c3OC[C@H](C)O)nc2N1C1CCCC1 : 7.20
CC[C@@H]1C(=O)N(C)c2cnc(Nc3cc(N4CCN(C)CC4)cc(F)c3OCCCO)nc2N1C1CCCC1 : 7.05
CN1CCN(c2ccc(OC(F)(F)F)c(Nc3ncc4c(n3)-c3c(c(C(N)=O)nn3CCO)CC4)c2)CC1 [ONVANSERTIB] : 7.47
CC[C@@H]1C(=O)N(C)c2cnc(Nc3cc(N4CCN(C)CC4)cc(F)c3OCCCO)nc2N1C(C)C : 6.95
CC[C@@H]1C(=O)N(C)c2cnc(Nc3cc(N4CCN(C)CC4)ccc3OCCCO)nc2N1C1CCCC1 : 7.40

Returns the measured pIC50 for the input compound. Input: `CC[C@@H]1C(=O)N(C)c2cnc(Nc3cc(N4CCN(C)CC4)cc(F)c3OCCO)nc2N1C1CCCC1`
7.19

Returns the measured pIC50 for the input compound. Input: `CC[C@@H]1C(=O)N(C)c2cnc(Nc3cc(N4CCN(C)CC4)cc(Cl)c3OCCCO)nc2N1C1CCCC1`
7.39
